biological target: BRD9 bromodomain (Flag-BRD9 P133-K239; Swiss Prot Q9H8M2) (Homo sapiens, UniProt Q9H8M2); construct: His-Flag-BRD9 (P133-K239); Swiss Prot Q9H8M2; His6 with TEV site (mgsshhhhhhenlyfq/) (N, cleaved yes); experiment: BRD9 Bromodomain TR-FRET Competition Binding Assay; details: competition with biotinylated BRD9 ligand; 90 minutes at room temperature
Sequence (Q9H8M2 133-239): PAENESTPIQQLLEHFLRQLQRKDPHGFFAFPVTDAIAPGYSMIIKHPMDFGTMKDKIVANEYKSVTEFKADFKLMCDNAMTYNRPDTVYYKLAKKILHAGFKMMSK

molecule	system.tested	IC50
CNc1cc2c(-c3cc(OC)c(CN(C)C)c(OC)c3)cn(C)c(=O)c2cn1	BRD9 bromodomain (Flag-BRD9 P133-K239; Swiss Prot Q9H8M2) (Homo sapiens, UniProt Q9H8M2)	< 10 nM
COc1cc(-c2cn(C)c(=O)c3cnc(N(C)C)cc23)cc(OC)c1CN1CC[C@H]1C(=O)N(C)Cc1cccc2c1C(=O)N(C1CCC(=O)NC1=O)C2=O (stereo partly drawn)	BRD9 bromodomain (Flag-BRD9 P133-K239; Swiss Prot Q9H8M2) (Homo sapiens, UniProt Q9H8M2)	< 10 nM
COc1cc(-c2cn(C)c(=O)c3cnc(NCCCCCCCCNC(=O)COc4cccc5c4C(=O)N(C4CCC(=O)NC4=O)C5=O)cc23)cc(OC)c1CN(C)C (stereo not drawn)	BRD9 bromodomain (Flag-BRD9 P133-K239; Swiss Prot Q9H8M2) (Homo sapiens, UniProt Q9H8M2)	≥ 10 nM
COc1cc(-c2cn(C)c(=O)c3cc(NCCCCCOc4cccc5c4C(=O)N(C4CCC(=O)NC4=O)C5=O)ncc23)c(OC)cc1CN(C)C (stereo not drawn)	BRD9 bromodomain (Flag-BRD9 P133-K239; Swiss Prot Q9H8M2) (Homo sapiens, UniProt Q9H8M2)	≥ 1000 nM
COc1cc(-c2cn(C)c(=O)c3cnc(N(C)C)cc23)cc(OC)c1CN1CCC2(CC1)CN(C(=O)CCCCOc1cccc3c1C(=O)N(C1CCC(=O)NC1=O)C3=O)CCO2 (stereo not drawn)	BRD9 bromodomain (Flag-BRD9 P133-K239; Swiss Prot Q9H8M2) (Homo sapiens, UniProt Q9H8M2)	< 10 nM
COc1cc(-c2cn(C)c(=O)c3cnc(N(C)C)cc23)cc(OC)c1CN1CC[C@H]1CN(C)Cc1cccc2c1C(=O)N(C1CCC(=O)NC1=O)C2=O (stereo partly drawn) [Compound D2]	BRD9 bromodomain (Flag-BRD9 P133-K239; Swiss Prot Q9H8M2) (Homo sapiens, UniProt Q9H8M2)	< 10 nM
